Tested on: M14
test_details: Inhibition of cell growth in human M14 cells incubated for 48 hrs by SRB assay
Type: functional, cell-based
measurement_setup: M14, 48 h
Field: pIC50. Provide a value for each of the compounds that follow.
Please express pIC50 as -log10 of the molar concentration.

Prompt: Entry O=C(Nc1ncc(Cc2ccc(F)cc2)s1)c1ccc(-n2cnnn2)cc1 has what pIC50?
Completion: 6.58

Prompt: Entry O=C(Nc1ncc(Cc2cc(Cl)ccc2Cl)s1)c1ccc(-n2cnnn2)cc1 has what pIC50?
Completion: 6.16

----------
Test system: MDA-MB-468
test_details: Antiproliferative activity against human MDA-MB-468 cells assessed as inhibition of cell proliferation measured after 48 hrs by SRB assay
Type: functional, cell-based
measurement_setup: MDA-MB-468, 48 h
measured_property: pIC50
Please express pIC50 as -log10 of the molar concentration.

Prompt: Entry Cc1cnnn1-c1ccc(C(=O)Nc2ncc(Cc3ccccc3)s2)cc1 has what pIC50?
Completion: 5.69

----------
test_target: NAD-dependent protein deacetylase sirtuin-2 (Homo sapiens, UniProt Q8IXJ6)
Sequence (Q8IXJ6 whole entry): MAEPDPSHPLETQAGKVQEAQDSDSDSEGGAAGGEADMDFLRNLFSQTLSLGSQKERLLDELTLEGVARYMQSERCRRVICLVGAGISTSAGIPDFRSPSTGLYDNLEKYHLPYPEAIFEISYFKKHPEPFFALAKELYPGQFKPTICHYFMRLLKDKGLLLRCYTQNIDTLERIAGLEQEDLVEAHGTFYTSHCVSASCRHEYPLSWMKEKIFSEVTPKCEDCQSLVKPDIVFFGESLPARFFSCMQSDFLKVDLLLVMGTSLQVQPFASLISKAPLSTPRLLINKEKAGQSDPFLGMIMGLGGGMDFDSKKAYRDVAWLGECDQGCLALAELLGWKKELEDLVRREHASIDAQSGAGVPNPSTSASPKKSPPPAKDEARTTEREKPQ
measured_property: IC50 (µM)
Numbers only; they are read as µM.

Prompt: Entry COCCn1cc(COc2cccc(Cc3cnc(NC(=O)CSc4nc(C)cc(C)n4)s3)c2)nn1 has what IC50?
Completion: 0.118

----------
test_details: Antiproliferative activity against human HaCaT cells assessed as inhibition of cell proliferation measured after 72 hrs by MTT assay
Assay type: toxicity, cell-based
Hi! Just check whether IC50 at 72 h is below 30 µM. Below gives class 1, equal or above gives class 0.

Prompt: In the record for O=C(Nc1ncc(Cc2ccc(F)cc2)s1)c1ccc(-n2cnnn2)cc1 , is IC50 at 72 h less than 30 µM?
Completion: class 0

Prompt: In the record for COc1cccc2c1C(=O)c1c(O)c3c(c(O)c1C2=O)C[C@@](O)(C(=O)CO)C[C@@H]3O[C@H]1C[C@H](N)[C@H](O)[C@H](C)O1 , is IC50 at 72 h less than 30 µM?
Completion: class 1

Prompt: In the record for CC(C)c1nnnn1-c1ccc(C(=O)Nc2ncc(Cc3ccccc3)s2)cc1 , is IC50 at 72 h less than 30 µM?
Completion: class 1

Prompt: In the record for O=C(Nc1ncc(Cc2ccccc2)s1)c1ccc(-n2cnnn2)cc1O , is IC50 at 72 h less than 30 µM?
Completion: class 0

Prompt: In the record for O=C(Nc1ncc(Cc2ccccc2)s1)c1ccc(-n2cnnn2)cc1 , is IC50 at 72 h less than 30 µM?
Completion: class 0

Prompt: In the record for COc1ccc(Cc2cnc(NC(=O)c3ccc(-n4cnnn4)cc3)s2)cc1 , is IC50 at 72 h less than 30 µM?
Completion: class 0

Prompt: In the record for O=C(/C=C/c1ccc(-n2cnnn2)cc1)Nc1ncc(Cc2ccccc2)s1 , is IC50 at 72 h less than 30 µM?
Completion: class 0

Prompt: In the record for Cc1cccc(Cc2cnc(NC(=O)c3ccc(-n4cnnn4)cc3)s2)c1 , is IC50 at 72 h less than 30 µM?
Completion: class 0

Prompt: In the record for Cc1cccc(Cc2cnc(NC(=O)c3cccc(-n4cnnn4)c3)s2)c1 , is IC50 at 72 h less than 30 µM?
Completion: class 0

Prompt: In the record for O=C(Nc1ncc(Cc2cc(Cl)ccc2Cl)s1)c1ccc(-n2cnnn2)cc1 , is IC50 at 72 h less than 30 µM?
Completion: class 0

Prompt: In the record for O=C(Nc1ncc(Cc2cccc(C(F)(F)F)c2)s1)c1ccc(-n2cnnn2)cc1 , is IC50 at 72 h less than 30 µM?
Completion: class 0

Prompt: In the record for Cc1ccc(Cc2cnc(NC(=O)c3ccc(-n4cnnn4)cc3)s2)cc1 , is IC50 at 72 h less than 30 µM?
Completion: class 0

Prompt: In the record for Cc1nnnn1-c1ccc(C(=O)Nc2ncc(Cc3ccccc3)s2)cc1 , is IC50 at 72 h less than 30 µM?
Completion: class 1

# credit: ChEMBL document CHEMBL5335775
